The entries below are paired with their reported %Inh.
System: HIPK1
conditionsUsed: concentration: 1 μM, replicates: in singlicate; n = 1

Consider the reported %Inh for these compounds:
compound	%Inh
Nc1nc(N)c2nc(-c3ccccc3)[nH]c2n1	5%
COc1cc2nccc(Nc3cccc(Oc4ccccc4)c3)c2cc1OC.Cl	0%

IN: Request body: readout %Inh, system HIPK1, query COc1ccc(Nc2nccc(N3CCC(NS(=O)(=O)c4ccc(NC(C)=O)cc4)C3)n2)cc1 (stereo not drawn) . Return the value.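 Note: KINOMEscan kinase panel screen.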
OUT: 0%

IN: Provide the documented %Inh with HIPK1 as the system for O=C(Nc1n[nH]c2nc(-c3ccccc3)c(Br)cc12)C1CC1
OUT: 0%

IN: What measured %Inh is associated with CC(C)(C)c1ccc(C(=O)Nc2cn3cc(-c4ccccc4)ccc3n2)cc1 on HIPK1?
OUT: 43%

IN: Under HIPK1: %Inh value of Nc1ncnc2c1ncn2-c1ccc(Cl)cc1 ?
OUT: 0%

IN: Query %Inh on HIPK1 for Cc1nn2c(=O)cc(N3CCOCC3)nc2n1Cc1cccc(Cl)c1Cl
OUT: 0%

The reported numbers originate from paper PMC5540273.
